Biological target: human cardiac ion channel proteins hKir3.1/Kir3.4 (Homo sapiens, UniProt P48544+P48549)
Construct: expressed in transfected cells
Sequence (P48549 1-501): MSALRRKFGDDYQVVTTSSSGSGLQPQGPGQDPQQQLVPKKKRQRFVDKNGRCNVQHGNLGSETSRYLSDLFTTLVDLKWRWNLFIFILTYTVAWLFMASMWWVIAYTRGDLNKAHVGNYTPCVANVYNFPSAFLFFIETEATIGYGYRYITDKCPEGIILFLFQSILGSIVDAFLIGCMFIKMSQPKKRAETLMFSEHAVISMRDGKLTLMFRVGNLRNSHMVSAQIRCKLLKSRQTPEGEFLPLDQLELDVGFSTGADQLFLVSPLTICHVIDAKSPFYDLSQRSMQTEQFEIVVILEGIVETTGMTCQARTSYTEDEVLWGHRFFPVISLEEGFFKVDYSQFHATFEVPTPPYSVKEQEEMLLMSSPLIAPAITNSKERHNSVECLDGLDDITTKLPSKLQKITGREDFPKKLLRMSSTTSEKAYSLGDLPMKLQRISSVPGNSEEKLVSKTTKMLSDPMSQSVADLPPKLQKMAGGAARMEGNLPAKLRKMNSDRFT
Sequence (P48544 1-419): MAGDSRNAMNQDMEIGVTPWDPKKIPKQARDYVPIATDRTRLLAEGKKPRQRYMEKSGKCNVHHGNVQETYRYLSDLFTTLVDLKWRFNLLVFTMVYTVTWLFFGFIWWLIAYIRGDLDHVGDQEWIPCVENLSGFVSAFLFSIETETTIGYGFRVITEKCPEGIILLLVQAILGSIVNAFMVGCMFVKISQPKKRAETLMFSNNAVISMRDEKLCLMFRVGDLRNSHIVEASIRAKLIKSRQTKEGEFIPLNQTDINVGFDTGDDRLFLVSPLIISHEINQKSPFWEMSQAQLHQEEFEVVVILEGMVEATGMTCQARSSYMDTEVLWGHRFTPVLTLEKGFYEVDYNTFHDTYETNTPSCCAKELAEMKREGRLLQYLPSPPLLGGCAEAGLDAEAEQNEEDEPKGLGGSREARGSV
Test: Atomic Absorption Screening (AAS) Rb efflux assay of hKir3.1/Kir3.4 block, carbachol/high K+ stimulated, 10-pt or 7-pt CR
Assay type: cell-based
Conditions: 10-pt CR (0.003 to 67 μmol/L), AAS Rb efflux, CHO-K1 cells expressing hKir3.1/Kir3.4; mean of >4 replicates; read-out: IKACh IC50 10-pt CR, AAS
This section presents molecules with their documented pIC50 values.
Scale note: pIC50 = -log10(concentration in M).

Consider the worked cases shown below.
Molecule	Assayed Target	Reported Metric	Value Observed
CN(C(=O)c1ccc(Br)cc1)[C@H](CN1CC(O)C1)C1CC1	human cardiac ion channel proteins hKir3.1/Kir3.4 (Homo sapiens, UniProt P48544+P48549)	pIC50	6.23
CN(C(=O)c1ccc(C#N)cc1)[C@H](CN1CC(O)C1)C1CCC1	human cardiac ion channel proteins hKir3.1/Kir3.4 (Homo sapiens, UniProt P48544+P48549)	pIC50	6.31
Cc1cc(C(=O)N(C)[C@](C)(CN2CC(O)C2)C(C)C)ccc1F	human cardiac ion channel proteins hKir3.1/Kir3.4 (Homo sapiens, UniProt P48544+P48549)	pIC50	4.72
COc1cc(C(=O)N(C)[C@H](CN2CCC(OC)CC2)C(C)C)ccc1C	human cardiac ion channel proteins hKir3.1/Kir3.4 (Homo sapiens, UniProt P48544+P48549)	pIC50	5.14
CC(C)[C@@H](CN1CCC1)N(C)C(=O)c1ccc(Cl)cc1	human cardiac ion channel proteins hKir3.1/Kir3.4 (Homo sapiens, UniProt P48544+P48549)	pIC50	5.22

Any idea what its pIC50 is? The molecule is CC(C)[C@@H](CN1CCCC(F)(F)C1)N(C)C(=O)c1ccc(F)c(C(F)(F)F)c1 4.82

And then Cc1cc(C(=O)N(C)[C@H](CN2CCCC2)[C@@H](C)OC(C)(C)C)ccc1F , what is it? 4.80

And then CN(C(=O)c1ccc(F)cc1Cl)C(CN1CC(O)C1)C1CCCC1 (single isomer, unassigned) [32.6, isomer 2] , what is it? 5.64
